All figures here come from the EternaBench riboswitch data.

system: MS2 coat protein; experiment: apparent Kd, MS2 coat protein; higher = weaker binding; RNA-MaP array; FMN 200 µM where present; conditions: ligand present: flavin mononucleotide; designed as: OFF switch for flavin mononucleotide
Listed here are sequences together with their documented apparent Kd.
All answers are understood in nM, so give the number only.

Here is how some sequences turned out for apparent Kd.
- residue string: "UUACUAUCACAGAAGGCUAGAUAGUAUAUAGAUGGAGGAUAUGUGACAUGAGGAUCACCCAUGUUUCACCGACAUGAGGAUCAC"
  test result: 41.6
- residue string: "AGCUGUGGCCGAGGAUAUACAUCCUUUAUAACCGAUGAAUAUCAUCGGACAUGAGGAUCACCCAUGUAGAAGGCGGUCUCAGCA"
  test result: 750
- residue string: "GGUGCGAGUGUGAGGAUAUGCUGGUCGUAAGAUCAGCAGAAGGCACAUGAGGAUCACCCAUGUGAAAACGUACC"
  test result: 145
- residue string: "UUUAUGUGAGGAUAUCAGUAGUAAAAAAAUAAAAUUACUACUGAGAAGGCACAUGAGGAUCACCCAUGUGCUUC"
  test result: 15.1
- residue string: "CAGGUUAGAGGAUAUACGUAGGUACAGAUCUGUGUGUUCCUACAUGAGGAUCACCCAUGUAGAAGGCUAUCCUG"
  test result: 208
- residue string: "UCAGGCUUCGAGAAGGACAUGAGGAUCACCCAUGUGCGUGUGAAGCAGCCGUGAGGCUGCAUCAUGUAGGAUAUCGGAGUCUGG"
  test result: 583
- residue string: "CGUCGAAAGGCGGGUCCAUCACCACAUGAGGAUCACCCAUGUAAGGAUAUCGGACUCAGAAAGAGCGAGAAGGUACAUAGUUAA"
  test result: 6.53
- residue string: "CGGGCGCGAGGAUAUACAUGAGGAUCACCCAUGUAGUGGGUUUGUUUCGGGCUUGCGUGUAGAAGGUGUGUUUG"
  test result: 172
- residue string: "UGAUAACAUGUAGGAUAUCCAGCAUUGACCAUCGGAGAAGGACAUGAGGAUCACCCAUGUACCGAUACAAUGGGAUAAUGGAAU"
  test result: 17.2
- residue string: "UCCAUCCCUGUGAGGAUAUCGUCCGUUUUUUGUUCCGAGAAGGCACAUGAGGAUCACCCAUGUUUUUUGUUUUU"
  test result: 58.8

Problem: Please give the measured apparent Kd for this sequence: "AGAUACUACGAGAAGGACAUGAGGAUCACCCAUGUAACCAGUAUCUGGAAUGUAGGAUAUCGUAGUAUCAGGAUCGUGAGAUCA"
Result: 32.9

Problem: Next: "CAGAAGUCAGGAUAUGCUGCUCGUCACUUGCGUGAUGAGUAGCAGAAGGGACAUGAGGAUCACCCAUGUAAAGA"
Result: 113

* * *

system: MS2 coat protein; test: apparent Kd, MS2 coat protein; higher = weaker binding; RNA-MaP array; FMN 200 µM where present; settings: designed as: OFF switch for flavin mononucleotide; no ligand
quantity kind: apparent Kd (nM)
All answers are understood in nM, so give the number only.

- residue string: "UUUUAACAUGAGGAUCACCCAUGUGAGGAUAUCGAAAUUUAUAUUAAUAUUAAUAAUACGAGAAGGCACAUUUU"
  quantity kind: "apparent Kd"
  readout units: "nM"
  test result: 80.7
- residue string: "UAGCUCCAUGUGAGGAUAUAGACUCGGACCCGGGAUUAGAAGGUACAUGAGGAUCACCCAUGUAUCCAACUUGU"
  quantity kind: "apparent Kd"
  readout units: "nM"
  test result: 15.3
- residue string: "GGAUUACAUGAGGAUCACCCAUGUGAGGAUAUCGAUGUCCAGUAGGGCGUGCGGGACUCGAGAAGGCACUUGGA"
  quantity kind: "apparent Kd"
  readout units: "nM"
  test result: 47.5

We next turn to a different sequence, shown below.
Problem: Param readout = apparent Kd; param system = MS2 coat protein; param query = "GUCGGAAACGACAAGUCAGCUCGUGAGGAUAUACAAUAUUAAAAGAUCACAUGAGGAUCACCCAUGUAGAAGGCACGAGCUGAU" ; response: value
Result: 31.7
